species: Bos taurus; test: Displacement of [3H]colchicine from bovine brain tubulin at 1 uM
readout-name: inhibition
Quote the value and follow it with the unit of measurement.

Asked: If you can, please state the reported inhibition value of `Cc1ccc(Nc2nc(-n3ccnc3C)cs2)cc1` .
Given back: 58%

Asked: Also, `COc1ccc(Nc2nc(N)c(C(=O)c3ccc(OC)c(OC)c3)s2)cc1` please.
Given back: 63%

Asked: Also, `COc1ccc(Nc2nc(N)c(C(=O)c3ccccc3OC)s2)cc1` please.
Given back: 77%

More entries:
Asked: If you can, please state the reported inhibition value of `COc1cccc(Nc2nc(N)c(C(=O)c3ccccc3)s2)c1` .
Given back: 43%
